B1: PDZK1 (parent)
chain: RETASLKLLPHQPRIVEMKKGSNG

- Variants of: B1
- METHOD SUMMARY: protein stability index of a GFP-peptide fusion (GPS, HEK-293T) (PSI 1-6); higher = more stable;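 also: lentivirally expressed fusions sorted by FACS into six bins by GFP to DsRed ratio, PSI derived from sequencing read proportions per bin multiplied by bin number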
- CONDITION DESCRIPTION: c terminus: a fixed tail appended
Reported protein stability index is given for each of the following variants.
Please reply with the number alone, leaving off any unit.

Would you please look over these solved cases?
>  <MUTANT ID>
M18D

>  <protein stability index>
5.3

$$$$
>  <MUTANT ID>
L9N

>  <protein stability index>
3.79

$$$$
>  <MUTANT ID>
K19I

>  <protein stability index>
2.77

$$$$
>  <MUTANT ID>
P13K

>  <protein stability index>
4.07

$$$$
>  <MUTANT ID>
H11K

>  <protein stability index>
3.53

$$$$
>  <MUTANT ID>
E17H

>  <protein stability index>
3.67

$$$$
>  <MUTANT ID>
P13H

>  <protein stability index>
3.73

$$$$
>  <MUTANT ID>
Q12E

>  <protein stability index>
2.88

$$$$

The variant listed as H11S has a reported protein stability index of 3.52

The variant listed as P10W has a reported protein stability index of 2.82

The variant listed as L8Y has a reported protein stability index of 3.17

The variant listed as G24T has a reported protein stability index of 4.41
